Biological target: human ether-à-go-go-related gene (hERG) potassium channel (human, UniProt Q12809);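 note: peak tail current of the secondary pulse compared with the same well before compound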
Sequence (Q12809 whole entry, looked up): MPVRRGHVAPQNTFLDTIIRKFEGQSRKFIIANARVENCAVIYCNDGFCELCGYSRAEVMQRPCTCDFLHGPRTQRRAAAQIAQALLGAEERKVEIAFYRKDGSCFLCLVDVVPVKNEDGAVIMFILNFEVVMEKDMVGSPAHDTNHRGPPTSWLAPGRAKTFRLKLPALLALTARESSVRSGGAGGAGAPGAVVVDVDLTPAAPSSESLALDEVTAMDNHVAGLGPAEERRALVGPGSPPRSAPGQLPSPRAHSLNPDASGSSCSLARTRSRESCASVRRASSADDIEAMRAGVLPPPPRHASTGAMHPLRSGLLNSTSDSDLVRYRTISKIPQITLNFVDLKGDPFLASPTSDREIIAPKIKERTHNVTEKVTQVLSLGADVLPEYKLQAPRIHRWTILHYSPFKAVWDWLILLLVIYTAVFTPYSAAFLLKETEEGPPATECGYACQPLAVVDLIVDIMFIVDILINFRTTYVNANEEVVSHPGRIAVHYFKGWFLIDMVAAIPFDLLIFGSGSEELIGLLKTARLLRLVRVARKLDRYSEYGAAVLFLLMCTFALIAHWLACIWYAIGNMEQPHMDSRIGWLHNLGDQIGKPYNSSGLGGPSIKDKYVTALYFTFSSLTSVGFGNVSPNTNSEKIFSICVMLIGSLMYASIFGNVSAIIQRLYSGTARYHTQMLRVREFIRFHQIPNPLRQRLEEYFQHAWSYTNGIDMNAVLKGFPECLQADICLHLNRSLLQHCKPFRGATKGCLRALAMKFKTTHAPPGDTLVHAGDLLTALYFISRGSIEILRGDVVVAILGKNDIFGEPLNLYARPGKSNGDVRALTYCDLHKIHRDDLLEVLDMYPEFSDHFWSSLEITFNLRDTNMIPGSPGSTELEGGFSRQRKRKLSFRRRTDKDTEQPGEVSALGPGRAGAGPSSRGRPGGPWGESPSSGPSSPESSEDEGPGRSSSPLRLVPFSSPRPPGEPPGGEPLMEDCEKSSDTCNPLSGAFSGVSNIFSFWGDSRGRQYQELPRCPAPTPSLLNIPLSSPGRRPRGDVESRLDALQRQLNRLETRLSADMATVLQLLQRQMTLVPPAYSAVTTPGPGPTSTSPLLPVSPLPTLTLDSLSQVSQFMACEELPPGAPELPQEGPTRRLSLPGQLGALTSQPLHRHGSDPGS
Experiment: primary screen, population patch clamp on CHO cells stably expressing hERG; higher = less effect of the substance
In all, about 310,000 compounds went through this assay and about 14,000 (4.5%) showed an effect of 50% or more. Effects have a minus sign here. What follows is part of a selection rich in strong results, with near analogues and random picks from the rest.
This section presents molecules with their documented hERG current change (%, negative = inhibition) at 10uM values.
property: hERG current change (%, negative = inhibition) at 10uM (%)

- molecule: "O=C(NNc1nc(-c2ccccc2)cs1)c1ccccc1"
  reported-measurement: 3.27
- molecule: "CC(C)C(=O)N1CCN(c2ccccc2NC(=O)c2ccc(C#N)cc2F)CC1"
  reported-measurement: -72.2
- molecule: "Cc1ccc(NC(=O)N2CCCCC2)cc1NC(=O)N1CCCCC1"
  reported-measurement: 16.5
- molecule: "COc1c(C)cccc1C(=O)Nc1ccc(N2CCN(S(C)(=O)=O)CC2)cc1"
  reported-measurement: 5.12
- molecule: "O=[N+]([O-])c1ccc(CSc2nnc(SCc3ccc(Cl)cc3)s2)cc1"
  reported-measurement: 16.8
- molecule: "CC(=O)N1CCN(c2ccccc2NC(=O)c2ccc(C#N)cc2F)CC1"
  reported-measurement: -49.6
- molecule: "COc1ccc(C(=O)Nc2ccccc2N2CCN(C(=O)C(C)C)CC2)cc1Cl"
  reported-measurement: -30.9
- molecule: "COc1ccc(Cl)cc1C(=O)Nc1ccccc1N1CCN(C(=O)C(C)C)CC1"
  reported-measurement: -74
- molecule: "Cc1cc(Br)ccc1NC(=O)CN(C)C(=O)C1CSC2(C)CCC(=O)N12 (stereo not shown)"
  reported-measurement: 11.5
- molecule: "CN1CCN(c2ccccc2NC(=O)c2ccccc2F)CC1"
  reported-measurement: -70.8

Data credit: paper PMC4336329
